MEASURED_TARGET: SHP2-C SH2;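 note: peptide library displayed on the E. coli surface as eCPX fusions, selected cells deep-sequenced, score is each peptide's frequency after selection divided by its frequency in the input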
TEST_PROTOCOL: SH2 binding enrichment of the phosphorylated peptide, bacterial display (enrichment ratio); higher = better substrate or ligand; peptides without Tyr show the background
MEASURED_PROPERTY: SH2 binding enrichment

residues="MKGDFYRFLAE [YWHAG_Y131_YF]" value=0.36

A. RSACTYLASHL [PLK3_Y615]
B. LERDIYNREEF [HLA-DPB1_Y59_Y57D]
Returns the identifier with the smallest measured SH2 binding enrichment among A and B . Kindly give the label for the entry you pick.
A
(A: 0.498, B: 1.07)

---

MEASURED_TARGET: EPHB1 (UniProt P54762)
Sequence (P54762 whole entry, looked up): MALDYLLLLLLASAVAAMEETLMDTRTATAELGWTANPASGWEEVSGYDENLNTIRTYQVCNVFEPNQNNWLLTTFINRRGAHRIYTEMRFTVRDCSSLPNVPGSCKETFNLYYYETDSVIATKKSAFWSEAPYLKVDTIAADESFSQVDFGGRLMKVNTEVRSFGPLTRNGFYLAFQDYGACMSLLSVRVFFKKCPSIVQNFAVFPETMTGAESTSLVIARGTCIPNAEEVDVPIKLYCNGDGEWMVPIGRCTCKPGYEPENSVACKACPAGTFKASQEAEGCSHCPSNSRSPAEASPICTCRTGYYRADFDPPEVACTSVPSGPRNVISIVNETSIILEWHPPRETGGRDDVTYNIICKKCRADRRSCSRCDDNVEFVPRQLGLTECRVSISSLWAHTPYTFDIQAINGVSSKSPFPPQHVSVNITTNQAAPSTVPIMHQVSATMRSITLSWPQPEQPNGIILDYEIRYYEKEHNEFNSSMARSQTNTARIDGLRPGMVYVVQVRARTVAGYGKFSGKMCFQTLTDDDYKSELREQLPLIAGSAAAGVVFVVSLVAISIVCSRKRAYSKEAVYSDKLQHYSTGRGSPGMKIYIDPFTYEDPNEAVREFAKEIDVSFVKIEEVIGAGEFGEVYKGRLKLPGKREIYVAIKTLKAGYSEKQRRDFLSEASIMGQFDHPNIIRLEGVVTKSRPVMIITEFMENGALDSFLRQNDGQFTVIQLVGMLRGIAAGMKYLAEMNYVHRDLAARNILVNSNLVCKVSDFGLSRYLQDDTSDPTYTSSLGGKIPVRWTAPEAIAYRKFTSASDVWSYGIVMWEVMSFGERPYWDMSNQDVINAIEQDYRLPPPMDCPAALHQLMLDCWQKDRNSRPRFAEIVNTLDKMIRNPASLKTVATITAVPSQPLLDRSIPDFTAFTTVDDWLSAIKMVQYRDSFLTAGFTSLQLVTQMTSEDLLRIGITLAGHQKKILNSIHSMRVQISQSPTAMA
TEST_PROTOCOL: phosphorylation enrichment, bacterial display (enrichment ratio); higher = better substrate or ligand; peptides without Tyr show the background
MEASURED_PROPERTY: phosphorylation enrichment
Just the number.

Guide cases for phosphorylation enrichment, answers given:
residues="VSNFNYFYHRE [KCNA1_Y413]" measured_target="EPHB1 (UniProt P54762)" value=0.614
residues="PLDGESFTLQI [TP53_Y327_Y327S]" measured_target="EPHB1 (UniProt P54762)" value=0.731
residues="LEITWYPFDVE [RIPOR2_Y316]" measured_target="EPHB1 (UniProt P54762)" value=1.21
residues="YSQNICIQNRN [PKP2_Y631_Y631C]" measured_target="EPHB1 (UniProt P54762)" value=0.529
residues="GYSRHCEDGYP [CTNND1_Y217_Y217C]" measured_target="EPHB1 (UniProt P54762)" value=0.521
residues="KELAKYFKLHH [AK7_Y390_N389K_YF]" measured_target="EPHB1 (UniProt P54762)" value=0.394
residues="SVTCTYSRALN [TP53_Y126_P128R]" measured_target="EPHB1 (UniProt P54762)" value=0.626
residues="AGRSGYDNREI [BCL2_Y9_T7S]" measured_target="EPHB1 (UniProt P54762)" value=0.386

Please examine the following record next.
phosphorylation enrichment for HNLPIYEGYAL [ACTA1_Y168_V165L] is 17

---

The following sequences are listed with their measured phosphorylation enrichment values.
System: Fer (mouse)
TEST_PROTOCOL: phosphorylation enrichment, bacterial display (enrichment ratio); higher = better substrate or ligand; peptides without Tyr show the background
Just the number.

Guide cases for phosphorylation enrichment, answers given:
residues="YSTSPYLLEAA [BRIP1_Y921]" value=0.53
residues="MNKNAYHNVTA [ST3GAL6_Y306]" value=0.379
residues="SVTCTYSRALN [TP53_Y126_P128R]" value=0.5
residues="EGDGVYTLNNK [HP_Y125_E130K]" value=0.455
residues="QNTGGYYDLYG [PTPN11_Y62_D61G]" value=2.69

phosphorylation enrichment for KELAKYFKLHH [AK7_Y390_N389K_YF] is 0.466

phosphorylation enrichment for NPQKSYFIRLF [WAS_Y83_YF] is 0.583

phosphorylation enrichment for QDDYSYPSRQM [LDLR_Y847_G844D] is 1.66

phosphorylation enrichment for GLAKEYIDPET [CSNK1G2_Y195] is 0.509

phosphorylation enrichment for RSPLRYTSILT [OR51B6_Y130] is 0.492

phosphorylation enrichment for ALPGEYIPTVF [RAC1_Y32_F28L] is 0.46

---

MEASURED_TARGET: Fyn (UniProt P06241)
Sequence (P06241 whole entry, looked up): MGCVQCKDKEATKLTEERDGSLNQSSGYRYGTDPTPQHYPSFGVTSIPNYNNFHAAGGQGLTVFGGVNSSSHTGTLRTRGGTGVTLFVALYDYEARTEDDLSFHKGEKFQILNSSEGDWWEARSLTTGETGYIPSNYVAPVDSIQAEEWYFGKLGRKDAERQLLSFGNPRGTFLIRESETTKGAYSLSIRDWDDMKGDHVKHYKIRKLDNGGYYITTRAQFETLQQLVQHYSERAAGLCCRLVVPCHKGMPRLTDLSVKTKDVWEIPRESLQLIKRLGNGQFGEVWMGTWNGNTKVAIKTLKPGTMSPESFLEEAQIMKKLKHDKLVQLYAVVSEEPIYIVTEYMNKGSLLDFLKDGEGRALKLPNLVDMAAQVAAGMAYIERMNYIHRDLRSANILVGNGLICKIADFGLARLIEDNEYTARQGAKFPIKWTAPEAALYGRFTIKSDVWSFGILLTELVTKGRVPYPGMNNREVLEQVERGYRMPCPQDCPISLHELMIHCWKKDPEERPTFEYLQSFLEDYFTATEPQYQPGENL
TEST_PROTOCOL: phosphorylation enrichment, bacterial display (enrichment ratio); higher = better substrate or ligand; peptides without Tyr show the background
The following sequences are listed with their measured phosphorylation enrichment values.
Just the number.

Guide cases for phosphorylation enrichment, answers given:
residues="HNLPIYEGYAL [ACTA1_Y168_V165L]" measured_target="Fyn (UniProt P06241)" value=11.6
residues="KTNVSYCGALD [CACNB4_Y103]" measured_target="Fyn (UniProt P06241)" value=0.381
residues="TVQIMYGCDVG [HLA-A_Y123_I119V]" measured_target="Fyn (UniProt P06241)" value=0.575
residues="LPKEQYLCTKE [AFG3L2_Y614_Y616C]" measured_target="Fyn (UniProt P06241)" value=0.466
residues="PLQKTYNFNML [SLC4A1_Y553_V557M_YF]" measured_target="Fyn (UniProt P06241)" value=0.493
residues="DSEIRYLSADS [TTF1_Y476]" measured_target="Fyn (UniProt P06241)" value=0.526

phosphorylation enrichment for GESKDYALHAG [SVIL_Y185_V189A] is 0.421

phosphorylation enrichment for SGSFRYGSSCE [SELE_Y390] is 0.45

phosphorylation enrichment for GHGEEYPAAGA [NOTCH3_Y2221] is 0.426

phosphorylation enrichment for EFITRYIDSLK [PSMA7_Y110_A112D_YF] is 0.526

phosphorylation enrichment for EREYKYGAHNH [OAT_Y50_Y55H] is 0.406

phosphorylation enrichment for LQFKNYQQLFD [MAN2A1_Y442] is 0.379

phosphorylation enrichment for GSCQEYTGAPY [NAXD_Y85_G81S] is 0.441

phosphorylation enrichment for AHAGEYGAVAL [HBA1_Y25_E28V] is 5.54

---

Test system: Fer (mouse)
TEST_PROTOCOL: phosphorylation enrichment, bacterial display (enrichment ratio); higher = better substrate or ligand; peptides without Tyr show the background
The following sequences are listed with their measured phosphorylation enrichment values.
Just the number.

Guide cases for phosphorylation enrichment, answers given:
residues="GSSKIYFLHAD [TLR5_Y108_P112A]" value=0.423
residues="PSPMPCASCQM [FOXL2_Y215_Y215C]" value=0.488
residues="DALDNYVIRGV [PCCA_Y473]" value=0.481
residues="DSEIRYLSADS [TTF1_Y476]" value=0.551
residues="ARQEEYSAMRD [KRAS_Y64_G60R]" value=0.387
residues="NPQKSYFIHLY [WAS_Y83_R86H]" value=0.517

phosphorylation enrichment for DNEALYDICFR [TUBB2B_Y208] is 10.2

---

MEASURED_TARGET: Fes (UniProt P07332)
Sequence (P07332 whole entry, looked up): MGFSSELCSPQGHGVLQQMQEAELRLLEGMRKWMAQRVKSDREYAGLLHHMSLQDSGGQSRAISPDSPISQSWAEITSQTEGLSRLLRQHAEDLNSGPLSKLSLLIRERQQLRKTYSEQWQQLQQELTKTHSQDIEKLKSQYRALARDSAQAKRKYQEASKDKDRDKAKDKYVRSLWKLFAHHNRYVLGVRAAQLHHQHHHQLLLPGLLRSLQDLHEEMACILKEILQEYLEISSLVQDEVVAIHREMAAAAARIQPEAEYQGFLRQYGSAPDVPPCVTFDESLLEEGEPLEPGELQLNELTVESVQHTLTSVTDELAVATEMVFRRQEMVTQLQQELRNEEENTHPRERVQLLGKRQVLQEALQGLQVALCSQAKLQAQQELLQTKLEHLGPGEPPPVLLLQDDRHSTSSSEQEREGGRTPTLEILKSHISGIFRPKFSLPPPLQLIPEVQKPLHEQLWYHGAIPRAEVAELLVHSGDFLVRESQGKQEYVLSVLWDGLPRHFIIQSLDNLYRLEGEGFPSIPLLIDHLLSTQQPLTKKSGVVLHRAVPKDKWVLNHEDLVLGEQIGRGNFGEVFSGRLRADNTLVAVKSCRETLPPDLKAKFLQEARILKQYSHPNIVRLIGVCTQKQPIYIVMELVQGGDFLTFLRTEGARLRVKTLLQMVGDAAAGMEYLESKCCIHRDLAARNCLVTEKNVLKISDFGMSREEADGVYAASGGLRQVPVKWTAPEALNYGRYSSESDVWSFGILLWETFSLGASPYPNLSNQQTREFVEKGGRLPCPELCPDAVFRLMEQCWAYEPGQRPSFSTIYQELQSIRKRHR
TEST_PROTOCOL: phosphorylation enrichment, bacterial display (enrichment ratio); higher = better substrate or ligand; peptides without Tyr show the background
MEASURED_PROPERTY: phosphorylation enrichment
Just the number.

Guide cases for phosphorylation enrichment, answers given:
residues="TRSFDYMEGGD [FGF7_Y58_YF]" value=1.18
residues="WQQQSYLDSGI [CTNNB1_Y30]" value=0.847
residues="IGLHAYGDQYR [IDH1_Y135_R132L]" value=0.834
residues="FTGVEYSSCDT [EPHA3_Y937]" value=1.12
residues="SIFKDYFRFNF [PLA2G2D_Y85_YF]" value=1.19
residues="YQKDVYNIPPS [NEDD9_Y177_D178N]" value=0.702

Please examine the following record next.
phosphorylation enrichment for IHETTYKSIMK [ACTA1_Y281_N282K] is 0.583

---

The following sequences are listed with their measured phosphorylation enrichment values.
MEASURED_TARGET: FGFR3 (UniProt P22607)
Sequence (P22607 whole entry, looked up): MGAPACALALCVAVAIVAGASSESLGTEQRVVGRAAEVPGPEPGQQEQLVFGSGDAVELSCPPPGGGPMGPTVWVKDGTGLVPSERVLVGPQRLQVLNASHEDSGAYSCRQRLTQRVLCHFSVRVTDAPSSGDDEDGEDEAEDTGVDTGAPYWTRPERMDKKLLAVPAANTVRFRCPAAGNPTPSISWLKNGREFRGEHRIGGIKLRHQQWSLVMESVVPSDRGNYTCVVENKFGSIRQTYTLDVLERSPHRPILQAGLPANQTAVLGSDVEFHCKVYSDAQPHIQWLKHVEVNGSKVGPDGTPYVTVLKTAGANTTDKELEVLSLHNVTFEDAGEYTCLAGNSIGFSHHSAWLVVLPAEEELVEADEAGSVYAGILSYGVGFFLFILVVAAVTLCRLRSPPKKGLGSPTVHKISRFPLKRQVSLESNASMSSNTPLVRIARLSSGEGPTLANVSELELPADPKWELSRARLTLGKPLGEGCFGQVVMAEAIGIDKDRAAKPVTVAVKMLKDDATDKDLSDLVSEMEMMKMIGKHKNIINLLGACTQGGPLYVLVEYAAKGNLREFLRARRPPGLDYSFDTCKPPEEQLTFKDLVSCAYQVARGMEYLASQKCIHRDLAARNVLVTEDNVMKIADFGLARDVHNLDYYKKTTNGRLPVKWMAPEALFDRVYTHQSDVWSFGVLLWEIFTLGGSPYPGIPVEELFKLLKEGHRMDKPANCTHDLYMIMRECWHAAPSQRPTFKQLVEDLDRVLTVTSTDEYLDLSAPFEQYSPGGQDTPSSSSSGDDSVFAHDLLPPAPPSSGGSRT
TEST_PROTOCOL: phosphorylation enrichment, bacterial display (enrichment ratio); higher = better substrate or ligand; peptides without Tyr show the background
Just the number.

residues="WNDLDYMDSRR [GAA_Y407]" value=0.674
residues="FADIAYNYHHG [PAH_Y166_R169H]" value=0.525
residues="SVTCTYSPVLN [TP53_Y126_A129V]" value=0.831
residues="LRAGVYREKDQ [DNM2_Y626_P627R]" value=0.524

phosphorylation enrichment for PGQRVYVVAER [SHH_Y316] is 0.524

phosphorylation enrichment for EKHGQYLIGHG [EPHB4_Y581_D576E] is 0.5

phosphorylation enrichment for VLPIDYFFPPQ [AR_Y552_YF] is 9.06

phosphorylation enrichment for YKRAVYCIIGR [NUP93_Y391] is 0.563

phosphorylation enrichment for TFINKYQGKLF [HGD_Y249_V245F] is 0.457

---

The following sequences are listed with their measured phosphorylation enrichment values.
MEASURED_TARGET: MERTK (UniProt Q12866)
Sequence (Q12866 whole entry, looked up): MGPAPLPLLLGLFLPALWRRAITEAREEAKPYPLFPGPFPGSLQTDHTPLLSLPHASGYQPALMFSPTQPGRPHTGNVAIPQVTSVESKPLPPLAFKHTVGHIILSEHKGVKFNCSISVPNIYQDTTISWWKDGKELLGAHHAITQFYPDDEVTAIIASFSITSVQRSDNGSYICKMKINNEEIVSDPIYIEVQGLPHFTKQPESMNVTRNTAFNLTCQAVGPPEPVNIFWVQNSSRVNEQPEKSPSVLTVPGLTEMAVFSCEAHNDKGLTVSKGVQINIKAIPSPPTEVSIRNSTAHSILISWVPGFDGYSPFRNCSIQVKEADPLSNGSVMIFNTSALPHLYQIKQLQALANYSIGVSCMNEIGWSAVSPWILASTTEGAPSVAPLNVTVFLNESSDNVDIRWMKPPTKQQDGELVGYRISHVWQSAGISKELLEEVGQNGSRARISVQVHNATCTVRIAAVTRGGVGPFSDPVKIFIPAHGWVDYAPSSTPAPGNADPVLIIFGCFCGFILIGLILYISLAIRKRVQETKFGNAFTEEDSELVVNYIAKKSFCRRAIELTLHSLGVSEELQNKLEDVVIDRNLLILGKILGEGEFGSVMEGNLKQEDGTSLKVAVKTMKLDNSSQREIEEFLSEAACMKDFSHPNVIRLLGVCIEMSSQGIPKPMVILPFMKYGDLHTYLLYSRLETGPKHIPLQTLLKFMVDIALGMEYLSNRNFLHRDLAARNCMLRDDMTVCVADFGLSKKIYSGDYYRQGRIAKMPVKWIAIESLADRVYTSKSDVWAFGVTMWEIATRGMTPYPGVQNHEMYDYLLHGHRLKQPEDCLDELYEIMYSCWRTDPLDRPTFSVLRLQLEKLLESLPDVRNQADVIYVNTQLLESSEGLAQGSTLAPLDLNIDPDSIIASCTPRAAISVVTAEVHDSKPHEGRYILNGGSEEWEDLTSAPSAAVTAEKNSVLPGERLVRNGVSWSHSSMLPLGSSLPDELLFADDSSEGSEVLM
TEST_PROTOCOL: phosphorylation enrichment, bacterial display (enrichment ratio); higher = better substrate or ligand; peptides without Tyr show the background
Just the number.

residues="NKEAICSGYIR [SMCHD1_Y283_Y283C]" value=0.42
residues="WASQRYGRELR [BAD_Y110_A107S]" value=0.516
residues="RSSKMYFKTRS [LPL_Y329_L330F]" value=0.712
residues="ATQDDYVLEVR [PTPRZ1_Y2179]" value=0.492
residues="AAVDEYLEHRR [FAM221A_Y17_Y20H]" value=0.388

phosphorylation enrichment for YSKTQYNQVPS [CXADR_Y318] is 0.467

phosphorylation enrichment for LDVDVYGPSVP [NUBPL_Y109] is 0.498

phosphorylation enrichment for RDWSLYFKIIE [KRT18_Y129_H128L] is 0.327
